- System: NCI-H522 lung
- Assay text: NCI tumour cell line growth inhibition, 48 h
TGI values by entry
Express it in µM; write the number only.

Previously resolved entries follow.
>>> quantitative_result("COC(=O)CC1(O)C(=O)OCc2c1cc1n(c2=O)Cc2c-1nc1ccccc1c2OC (configuration not stated)")
16.3
>>> quantitative_result("COC(=O)[C@@H]1c2c(oc3cc(CO)cc(O)c3c2=O)C=C[C@H]1O")
3.64
>>> quantitative_result("O=C(/C=C/c1ccccc1)c1ccc(Cl)cc1Cl")
28.3
>>> quantitative_result("CCOC(=O)N1c2ccccc2C(C)=CC(C)C1C (configuration not stated)")
89.6
>>> quantitative_result("CCOC(=O)Cc1c(C(=O)OCC)[n+](=O)c2cc(Cl)c(Cl)cc2n1[O-]")
3.63

Prompt: # get_value(readout='TGI', item= CCCCCCCCCCCC/C=C\CC[C@@H](O)[C@H](O)CC[C@H](O)[C@@H]1CC[C@@H](CCCCCCCC2=C[C@H](C)OC2=O)O1 )
Response: 25.9

Prompt: Okay, and COc1cc(C(=O)c2cnc(-c3c[nH]c4cccc(C)c34)[nH]2)cc(OC)c1OC ?
Response: 0.0224

Prompt: How about O=C(O)CNc1ccc2c(c1)Cc1cc(Br)ccc1-2 ?
Response: 56.8

Prompt: Please do the same for S=C(NCc1ccccn1)N/N=C/c1ccccn1 as well.
Response: 0.0713

Prompt: Now this one: COc1cc2ncn(-c3cc(OCc4ccccc4C(F)(F)F)c(C(N)=O)s3)c2cc1OC
Response: 3.67

Prompt: Do the same for Cc1c(C#N)c2nnn(-c3cccc(Cl)c3)c(=O)n2c1-c1ccccc1 please
Response: 8.59

Prompt: Request: Cc1ccc(NCCNCC(C)(C)O)c2c(=O)c3ccc(Cl)cc3sc12
Response: 3.59

Prompt: Now consider Cc1nn2c(=O)c([N+](=O)[O-])c(/C=C/c3ccc(F)cc3)nc2s1 .
Response: 18

Prompt: Next entry: O=C(/C=C/c1ccc(O)c(O)c1)N1CCN(c2ccc(Cl)cc2)CC1
Response: 12.6

Prompt: // same read-out, input: CCN(CC)CCOC(COc1cc(C)cc(C)c1)COc1cc(C)cc(C)c1
Response: 18.3

Prompt: Likewise for CN(CCN)[C@H](CSSC[C@@H](c1ccccc1O)N(C)CCN)c1ccccc1O ?
Response: 33

Prompt: Another compound: CCN(CC)c1c(C(C)(C)C)c(=O)n2ccsc2c1OC(C)=O
Response: 27.7

Prompt: Now try Oc1c(Br)cc2c(c1Br)-c1c(c(O)c3c4c1=NCCC=4C=N3)NCC2 .
Response: 5.52

Prompt: # iterate: CCOC(=O)c1ccc(N(CCOS(C)(=O)=O)CCOS(C)(=O)=O)cc1
Response: 41.1

Prompt: // same read-out, input: O=C(Nc1cccc(-n2ccc3c(NC(=O)c4ccccc4)ncnc32)c1)Nc1ccc(Cl)c(C(F)(F)F)c1
Response: 6.31

Prompt: Please do the same for COc1cccc(C2CC(=O)Nc3c2c(C)nn3-c2nc3ccccc3[nH]2)c1OC (configuration not stated) as well.
Response: 17.8

* * *

- System: MDA-MB-435
- Assay text: NCI tumour cell line growth inhibition, 48 h
Quick list: TGI per entry.
// note: answer is a bare numeric in µM

Recorded TGI, per entry:
>>> quantitative_result("CC1OC(OC2C(O)CC(OC3C(O)CC(OC4CCC5(C)C(CCC6C5CCC5(C)C(C7=CC(=O)OC7)C(O)CC65O)C4)OC3C)OC2C)CC(O)C1O (stereo not given)")
1.27
>>> quantitative_result("CCOC(=O)N1c2ccccc2C(C)=CC(C)C1C (stereo not given)")
15.8

Now look at this entry.
Prompt: Which measured TGI value corresponds to CCCOC(=O)c1cc(O)c(O)c(O)c1 ?
Response: 81.1

* * *

- System: SN12C renal
- Assay text: NCI tumour cell line growth inhibition, 48 h
Test readout: TGI

Known TGI results, listed for orientation:
>>> result("O=C1c2cc3c(cc2NC(c2ccccc2F)C1O)OCO3 (configuration not stated)")
"> 66.9 µM"
>>> result("COc1ccc(-c2nsc3c2NC(=O)CC3c2ccsc2)cc1 (configuration not stated)")
"> 100 µM"
>>> result("c1ccc(C(Oc2noc3ccccc23)c2ccccc2)cc1")
"> 100 µM"
>>> result("CCCOC(=O)c1cc(O)c(O)c(O)c1")
"> 100 µM"
>>> result("O=C(N/C(=C\\c1ccc([N+](=O)[O-])cc1)c1nc2ccccc2s1)c1ccccc1")
"44.9 µM"

Prompt: May I ask what TGI has been recorded for CC(=O)c1csc2c1C(=O)c1ccccc1C2=O ?
Response: 5.86 µM

Prompt: Quick one: Cc1cc(NC(=O)NCc2ccc(N3C(N)=NC(N)=NC3(C)C)cc2)ccc1S(=O)(=O)F
Response: > 100 µM

* * *

Measured TGI, listed per entry.
- Tested on: A549 NSCLC
- Assay text: NCI tumour cell line growth inhibition, 48 h
Numeric only. Scale: µM

>>> quantitative_result("CC(C)=C[C@@H]1C[C@H](C)[C@H]2CC[C@H](C)c3c(O)c(OC4OC(C)C(O)C(O)C4O)c(C)c1c32 (some centres not stated)")
24.2

Pending compound:
Prompt: If you can, please state the reported TGI value of Clc1ccc(-c2cn3c(nc4ccccc43)c(-c3ccccc3)n2)cc1 .
Response: 51.4

* * *

- System: SK-MEL-5 melanoma
- Assay text: NCI tumour cell line growth inhibition, 48 h
# label = yes (1) if TGI >= 20 µM else no (0)

Answered cases to consult:
>>> label_value("COc1cc(/C=C(\\C)[N+](=O)[O-])cc(OC)c1")
"yes (1)"
>>> label_value("O=c1cc(-c2ccccc2)oc2ccc(Cl)cc12")
"yes (1)"
>>> label_value("Cc1ccc(C(=O)N/N=C(\\N=Nc2ccc([N+](=O)[O-])cc2)c2ccc(N(CCC#N)CCC#N)cc2C)cc1")
"yes (1)"
>>> label_value("CC(=O)OCC1OC(OCCCOP(=O)(OCCC#N)OCC2OC(n3cnc4c(N)ncnc43)C(OC(=O)c3ccccc3)C2OC(=O)c2ccccc2)C(OC(C)=O)C(OC(C)=O)C1OC(C)=O (stereo not given)")
"yes (1)"

Turning now to a further molecule:
Prompt: // inclusive: TGI at least 20 µM? input: CN(CCN)[C@H](CSSC[C@@H](c1ccccc1O)N(C)CCN)c1ccccc1O
Response: yes (1)

* * *

- Tested on: SK-OV-3 ovarian
- Assay text: NCI tumour cell line growth inhibition, 48 h; in the data active = GI50 below about 0.43 µM; inactive = the rest
Outcome field: choose from y (active), n (inactive)

>>> label_value("Cn1cc(-c2cc(-c3cn(C)c4ccccc34)[nH]n2)c2ccccc21")
"n"
>>> label_value("Cc1ccc(-c2nc(NCCOCCOCCN)nc(N3CCN(c4ccccn4)CC3)n2)cc1")
"n"
>>> label_value("COc1cccc(C2CC(=O)Nc3c2c(C)nn3-c2nc3ccccc3[nH]2)c1OC (stereo not given)")
"n"

Prompt: Which outcome was entered for the compound CCCCCCCCCCCC1N=C(N)N=C(N)N1c1cccc(Br)c1 (stereo not given) in this test?
Response: n

Prompt: And the next one, CC(C)=C[C@@H]1C[C@H](C)[C@H]2CC[C@H](C)c3c(O)c(OC4OC(C)C(O)C(O)C4O)c(C)c1c32 (stereo not given in full) ?
Response: n

Prompt: Now the compound COc1cc2c(c(OC)c1OC)-c1cc(I)c(O)cc1[C@@H](NC(C)=O)CC2
Response: y

Prompt: Also, Nc1nc(SCc2ccccc2CCl)c2[nH]cnc2n1 please.
Response: n

Prompt: Same again, this time with O=c1c(I)c[nH]cc1I
Response: n

Prompt: What about CCc1ccc2c(c1)C(=O)c1c-2n(CCCN)c(=O)c2cc(OC)c(OC)cc12 ?
Response: n

Prompt: Can you handle Cc1ccc(NCCNCC(C)(C)O)c2c(=O)c3ccc(Cl)cc3sc12 next?
Response: n

* * *

Catalogue of compounds with associated TGI
- System: KM20L2 colon
- Assay text: NCI tumour cell line growth inhibition, 48 h
Express your answer in µM, writing the number without its unit.

>>> quantitative_result("Oc1c(Br)cc2c(c1Br)-c1c(c(O)c3c4c1=NCCC=4C=N3)NCC2")
18.7

From here, focus on the item given below.
Prompt: Recorded TGI for C/C=C/C=C/c1cc2cc3c(c(O)c2c(=O)[nH]1)C1(CC3)C(O)=c2c(=O)c3c(=O)cc(OC)c(=O)c=3c(=O)c2=C1O (stereo not given) with KM20L2 colon, please?
Response: 10.9

* * *

- Test system: HOP-62 NSCLC
- Assay text: NCI tumour cell line growth inhibition, 48 h; in the data active = GI50 below about 0.43 µM; inactive = the rest
Valid outcomes are listed here; reply with one: active, inactive

>>> label_value("CC1(C)N=C(N)N=C(N)N1c1ccc(CCCC(=O)Nc2ccc(S(=O)(=O)F)cc2)cc1")
"inactive"
>>> label_value("Cc1cc(N2CCC(N3CCCC3)CC2)nc(/N=C(\\N)Nc2ccc(Cl)c(Cl)c2)n1")
"inactive"
>>> label_value("CC(=O)ON(OCc1ccc2ccccc2c1)C(C)=O")
"inactive"
>>> label_value("COc1ccc(-c2nsc3c2NC(=O)CC3c2ccsc2)cc1 (configuration not stated)")
"active"
>>> label_value("COC(=O)c1c(C)nc(C)c2c1C(=O)C(Br)=C(NCc1ccccc1)C2=O")
"inactive"
>>> label_value("CC[C@H](C)[C@H](NC(=O)[C@H]1CCCCN1C)C(=O)N(C)[C@H](CCc1nc(C(=O)N[C@@H](Cc2ccccc2)C[C@H](C)C(=O)O)cs1)C(C)C")
"active"
>>> label_value("CNC(=O)CCN1CCN(CC/C=C2\\c3ccccc3Sc3ccc(Cl)cc32)CC1")
"inactive"
>>> label_value("COc1cccc(C2CC(=O)Nc3c2c(C)nn3-c2nc3ccccc3[nH]2)c1OC (configuration not stated)")
"inactive"

Prompt: Recorded test call requested for Nc1ncn([C@H]2CC(O)[C@@H](CO)S2)c(=O)n1 (some centres not stated)
Response: inactive

Prompt: Now the compound C=CCC(N[C@@H](CO)c1ccccc1)c1ccc2ccccc2n1 (some centres not stated)
Response: inactive

Prompt: Try this compound next: Clc1ccc(C=Nc2ccc(-c3nc4ccccc4[nH]3)cc2)cc1
Response: inactive

Prompt: Then Cc1cc(NC(=O)NCc2ccc(N3C(N)=NC(N)=NC3(C)C)cc2)ccc1S(=O)(=O)F ?
Response: inactive
